What MIC Streptococcus pyogenes (GC 4563) was measured for each of the following?
# Tested on: Streptococcus sp.
# Test method notes: in vitro antibacterial evaluation, MIC by broth dilution
# Type: cell-based
# Conditions used: broth dilution, 18 hours at 35° C.

[
  {
    "Compound": "CCCCCCN=C1NCC(C(O)C2NC(=O)C(C(O)C3CNC(=N)N3)NC(=O)C(Cc3ccc(OC4OC(CO)C(OC5OC6COC7(OC6C(O)C5O)C5CC6CC(C5)CC7C6)C(O)C4O)cc3)NC(=O)C(C(C)c3ccccc3)NC(=O)CNC(=O)C(CO)NC2=O)N1C1OC(CO)C(O)C(O)C1O (centres unmarked)",
    "MIC Streptococcus pyogenes (GC 4563)": "0.5 µg/mL"
  },
  {
    "Compound": "COc1ccc(COCC2OC(OC3C(CO)OC(Oc4ccc(CC5NC(=O)C(C(C)c6ccccc6)NC(=O)CNC(=O)C(CO)NC(=O)C(C(O)C6CNC(=N)N6C6OC(CO)C(O)C(O)C6O)NC(=O)C(C(O)C6CNC(=N)N6)NC5=O)cc4)C(O)C3O)C(O)C(O)C2O)cc1OCc1ccccc1 (centres unmarked)",
    "MIC Streptococcus pyogenes (GC 4563)": "0.25 µg/mL"
  },
  {
    "Compound": "CC(c1ccccc1)C1NC(=O)CNC(=O)C(CO)NC(=O)C(C(O)C2CNC(=N)N2C2OC(CO)C(O)C3OC(C)(C)OC32)NC(=O)C(C(O)C2CNC(=N)N2)NC(=O)C(Cc2ccc(OC3OC(CO)C(OC4OC5COC(C)(C)OC5C5OC(C)(C)OC45)C4OC(C)(C)OC34)cc2)NC1=O (centres unmarked) [Example 229b]",
    "MIC Streptococcus pyogenes (GC 4563)": ">128 µg/mL"
  },
  {
    "Compound": "COc1ccc2cc(C3OCC4OC(OC5C(CO)OC(Oc6ccc(CC7NC(=O)C(C(C)c8ccccc8)NC(=O)CNC(=O)C(CO)NC(=O)C(CC8CNC(=N)N8C8OC(CO)C(O)C(O)C8O)NC(=O)C(CC8CNC(=N)N8)NC7=O)cc6)C(O)C5O)C(O)C(O)C4O3)ccc2c1 (centres unmarked)",
    "MIC Streptococcus pyogenes (GC 4563)": "16 µg/mL"
  },
  {
    "Compound": "CC(c1ccccc1)C1NC(=O)CNC(=O)C(CO)NC(=O)C(C(O)C2CN(Cc3ccccc3)C(=NCc3ccccc3)N2C2OC(CO)C(O)C(O)C2O)NC(=O)C(C(O)C2CN(Cc3ccccc3)C(=NCc3ccccc3)N2Cc2ccccc2)NC(=O)C(Cc2ccc(OC3OC(CO)C(OC4OC(CO)C(O)C(O)C4O)C(O)C3O)cc2)NC1=O (centres unmarked)",
    "MIC Streptococcus pyogenes (GC 4563)": ">128 µg/mL"
  }
]

For each of the compounds below, state MIC Streptococcus pyogenes (GC 4563).
1. CC(c1ccccc1)C1NC(=O)CNC(=O)C(CO)NC(=O)C(C(O)C2CN(Cc3ccc(C(C)(C)C)cc3)C(=N)N2C2OC(CO)C(O)C(O)C2O)NC(=O)C(C(O)C2CNC(=N)N2)NC(=O)C(Cc2ccc(OC3OC(CO)C(OC4OC5COC6(OC5C(O)C4O)C4CC5CC(C4)CC6C5)C(O)C3O)cc2)NC1=O (centres unmarked)
2. CC(c1ccccc1)C1NC(=O)CNC(=O)C(CO)NC(=O)C(C(O)C2CNC(=N)N2C2OC(CO)C(O)C(O)C2O)NC(=O)C(C(O)C2CNC(=N)N2)NC(=O)C(Cc2ccc(OC3OC(CO)C(OC4OC5COC6(CC(C)(C)CC(C)(C)C6)OC5C(O)C4O)C(O)C3O)cc2)NC1=O (centres unmarked)
3. CCCCCCCN1CC(C(O)C2NC(=O)C(C(O)C3CNC(=N)N3)NC(=O)C(Cc3ccc(OC4OC(CO)C(OC5OC6COC7(OC6C(O)C5O)C5CC6CC(C5)CC7C6)C(O)C4O)cc3)NC(=O)C(C(C)c3ccccc3)NC(=O)CNC(=O)C(CO)NC2=O)N(C2OC(CO)C(O)C(O)C2O)C1=N (centres unmarked)

Response:
1 µg/mL
<0.12 µg/mL
0.25 µg/mL
